Tested on: U-251
Test: NCI tumour cell line growth inhibition, 48 h
Activity calls are given as the source filed them. No stated cut-off is given here; in the data, active = GI50 up to about 1.1 µM and inactive = higher.
Log the outcome using a class from t (active), f (inactive)

COMPOUND	ANSWER LABEL
O=C(N/N=C\c1c(O)ccc2ccccc12)c1ccncc1	t

### Prompt Could you check what this test reported for C[n+]1ccc(Nc2ccc(NC(=O)c3ccc(Nc4cc[n+](C)c5ccc([N+](=O)[O-])cc45)cc3[N+](=O)[O-])cc2)cc1 ?
### Response f

### Prompt What do you get for C=C1CC2C[C@H](OS(=O)(=O)c3ccc(C)cc3)C(C1)N2C (some centres undefined) ?
### Response f

### Prompt Also O=C1OC(c2ccccc2)=N/C1=C/NC(CO)C(=O)O (centres undefined) ?
### Response f

----------
Test system: HOP-92
Assay: NCI tumour cell line growth inhibition, 48 h
Activity calls are given as the source filed them. Rule as the data show it: active = GI50 up to about 1.1 µM and inactive = higher.
READOUT KIND: GI50

COMPOUND	RESULT
Cc1c(C#N)c(=O)[nH]c(=O)n1CCN1CCN(C(=O)NCCCCCCNC(=O)N2CCN(CCn3c(C)c(C#N)c(=O)[nH]c3=O)CC2)CC1	> 100 µM (inactive)
C1OC1C1CO1 (stereo not given)	> 100 µM (inactive)
CCOC(=O)C1(Cc2ccccc2)C=CN(C(=O)c2ccccc2)C=C1	23.4 µM (inactive)
C/N=C(\NC(=S)N(C)C)N(C)C	> 100 µM (inactive)
CC1(C)CC(=O)C=C(NC(=O)c2ccccc2)C1	> 100 µM (inactive)

### Prompt Suppose we examine the compound O=C(/C=C/C=C/c1ccccc1)c1ccccc1 ; what GI50 value has been reported?
### Response 18.4 µM (inactive)

### Prompt Thanks! And CC12CCC3c4cc(Br)c(O)c(Br)c4CCC3C1CCC2O (stereo not given) ?
### Response > 10 µM (inactive)

### Prompt Cc1nc2[nH]ccn2c(=O)c1CCO ?
### Response > 10 µM (inactive)

### Prompt Another compound: O=C(Nc1nnc(-c2c(Cl)c(Cl)c(Cl)c(Cl)c2-c2nc3cc(C(=O)c4ccccc4)ccc3[nH]2)o1)c1ccc(Cl)cc1
### Response 20.5 µM (inactive)

### Prompt Follow-up entry: CSC1=C(c2ccc(Cl)cc2)SC(N2CCCCC2)N1c1ccc([N+](=O)[O-])cc1 (stereo not given)
### Response 26.7 µM (inactive)

----------
Catalogue of GI50 readings, one per entry.
Test system: OVCAR-3
Assay: NCI tumour cell line growth inhibition, 48 h
The source made the active and inactive calls. Cut-off read from the data, not from the text of the source: active = GI50 up to about 1.1 µM and inactive = higher.

A selection of reference data follows.
MOLECULE	GI50
NC(CSCc1ccccc1)C(=O)O (stereo not given)	> 100 µM (inactive)
O=c1[nH]c(=O)n(C2CC(O)C(CO)O2)c2nc3ccc4ccccc4c3nc12 (stereo not given)	> 100 µM (inactive)
Fc1ccc(-c2sc(-c3cccs3)cc2Cc2cccs2)cc1	> 100 µM (inactive)
Cc1ccc(C)c(NC(=O)CC2C(=O)Nc3ccccc3S2(=O)=O)c1 (stereo not given)	42 µM (inactive)
N#CC(NCCc1ccccc1)c1ccc(C(C#N)NCCc2ccccc2)cc1 (stereo not given)	> 100 µM (inactive)

### Prompt What value of GI50 has been reported for the following molecule? O=C(OCc1ccccc1)c1nc2ccccc2n1S(=O)(=O)c1ccccc1
### Response > 100 µM (inactive)

### Prompt Repeat for the following molecule: N=C(N)NS(=O)(=O)c1ccc(NC(=O)c2cccc3c(NNc4ccc(C(=O)O)cc4)c4ccccc4nc23)cc1
### Response 46.7 µM (inactive)

### Prompt And then CC1C(OC2O[C@@H]3O[C@@]4(C)CC[C@H]5[C@H](C)CC[C@@H](C2C)[C@@]35O4)O[C@@H]2O[C@@]3(C)CC[C@H]4[C@H](C)CC[C@@H]1[C@@]24O3 (stereo not given in full) , what is it?
### Response > 50 µM (inactive)
